For each record, write down the corresponding standardized gMFI.
Target: T1, HLA-A2 / homologous peptide PRKD2 complex on T2 cells (human)
T1 construct: whole, on cells; also called T2 cells supplemented with homologous peptide PRKD2
Assay: flow cytometry on peptide-pulsed T2 cells, scFv 100 nM;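 note: scFv binding read as gMFI and normalized to the level of HLA/peptide complex displayed on T2 cells, with homologous 9-mer peptides used to probe specificity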
Just the number, please.

Q: Endpoint output: standardized gMFI of NYA-2047 (scFv) scFv: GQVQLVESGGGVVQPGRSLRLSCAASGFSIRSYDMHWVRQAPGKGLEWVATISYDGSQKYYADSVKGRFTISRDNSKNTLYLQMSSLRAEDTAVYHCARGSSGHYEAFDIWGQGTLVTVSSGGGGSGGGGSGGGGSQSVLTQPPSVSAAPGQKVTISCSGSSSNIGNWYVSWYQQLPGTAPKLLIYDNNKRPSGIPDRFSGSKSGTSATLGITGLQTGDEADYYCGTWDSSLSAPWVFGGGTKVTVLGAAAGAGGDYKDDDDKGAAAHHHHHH . Value?
Result: 0.35

Q: How about this binder: NYA-2044 (scFv, also called NYA-2044 tag adduct) scFv: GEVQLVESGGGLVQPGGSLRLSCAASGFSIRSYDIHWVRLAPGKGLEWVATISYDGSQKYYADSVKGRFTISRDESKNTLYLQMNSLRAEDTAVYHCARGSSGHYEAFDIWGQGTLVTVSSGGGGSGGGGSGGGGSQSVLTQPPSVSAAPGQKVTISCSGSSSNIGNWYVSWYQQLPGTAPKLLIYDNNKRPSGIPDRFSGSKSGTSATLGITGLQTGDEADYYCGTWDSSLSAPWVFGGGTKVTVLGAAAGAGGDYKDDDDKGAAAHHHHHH
Result: 0.33

Q: How about this binder: NYA-2035 (scFv) scFv: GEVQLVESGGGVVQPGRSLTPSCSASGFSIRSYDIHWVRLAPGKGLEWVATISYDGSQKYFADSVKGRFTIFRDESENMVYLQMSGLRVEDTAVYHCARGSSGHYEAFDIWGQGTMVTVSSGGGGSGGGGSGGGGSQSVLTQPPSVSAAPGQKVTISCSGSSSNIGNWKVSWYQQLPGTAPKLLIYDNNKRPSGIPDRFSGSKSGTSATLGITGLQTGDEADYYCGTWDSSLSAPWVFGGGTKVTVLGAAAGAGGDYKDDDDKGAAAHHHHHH
Result: 0.33

Q: How about this binder: NYA-1143 (scFv) scFv: GEVQLVESGGGVVQPGRSLTPSCSASGFSIRSYDIHWVRLAPGKGLEWVATISYDGSQKYFADSVKGRFTIFRDESENMVYLQMSGLRVEDTAVYHCARGSSGHYEAFDIWGQGTMVTVSSGGGGSGGGGSGGGGSQSVLTQPPSVSAAPGQKVTISCSGSSSNIGNWYVSWYQQLPGTAPKLLIYDNNKRPSGIPDRFSGSKSGTSATLGITGLQTGDEADYYCGTWDSSLSAPWVFGGGTKVTVLGAAAGAGGDYKDDDDKGAAAHHHHHH
Result: 0.32

Q: How about this binder: NYA-2027 (scFv) scFv: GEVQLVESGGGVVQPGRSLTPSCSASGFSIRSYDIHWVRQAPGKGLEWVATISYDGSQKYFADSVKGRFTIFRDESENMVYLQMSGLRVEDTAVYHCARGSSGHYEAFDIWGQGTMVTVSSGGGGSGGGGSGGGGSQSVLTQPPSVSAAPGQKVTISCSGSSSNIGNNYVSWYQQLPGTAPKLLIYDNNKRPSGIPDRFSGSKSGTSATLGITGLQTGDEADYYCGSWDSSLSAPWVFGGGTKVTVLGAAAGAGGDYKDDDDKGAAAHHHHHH
Result: 0.32

These data points were gathered from patent US20230348616A1.
